# credit: patent US20210115040A1

Tested target: recombinant human Meningioma Expressed Antigen 5 (MGEA5), also referred to as O-GlcNAcase (OGA) (Homo sapiens)
Construct: Full length OGA enzyme was purchased at OriGene (cat #TP322411); purchased OriGene TP322411
Sequence (O60502 whole entry): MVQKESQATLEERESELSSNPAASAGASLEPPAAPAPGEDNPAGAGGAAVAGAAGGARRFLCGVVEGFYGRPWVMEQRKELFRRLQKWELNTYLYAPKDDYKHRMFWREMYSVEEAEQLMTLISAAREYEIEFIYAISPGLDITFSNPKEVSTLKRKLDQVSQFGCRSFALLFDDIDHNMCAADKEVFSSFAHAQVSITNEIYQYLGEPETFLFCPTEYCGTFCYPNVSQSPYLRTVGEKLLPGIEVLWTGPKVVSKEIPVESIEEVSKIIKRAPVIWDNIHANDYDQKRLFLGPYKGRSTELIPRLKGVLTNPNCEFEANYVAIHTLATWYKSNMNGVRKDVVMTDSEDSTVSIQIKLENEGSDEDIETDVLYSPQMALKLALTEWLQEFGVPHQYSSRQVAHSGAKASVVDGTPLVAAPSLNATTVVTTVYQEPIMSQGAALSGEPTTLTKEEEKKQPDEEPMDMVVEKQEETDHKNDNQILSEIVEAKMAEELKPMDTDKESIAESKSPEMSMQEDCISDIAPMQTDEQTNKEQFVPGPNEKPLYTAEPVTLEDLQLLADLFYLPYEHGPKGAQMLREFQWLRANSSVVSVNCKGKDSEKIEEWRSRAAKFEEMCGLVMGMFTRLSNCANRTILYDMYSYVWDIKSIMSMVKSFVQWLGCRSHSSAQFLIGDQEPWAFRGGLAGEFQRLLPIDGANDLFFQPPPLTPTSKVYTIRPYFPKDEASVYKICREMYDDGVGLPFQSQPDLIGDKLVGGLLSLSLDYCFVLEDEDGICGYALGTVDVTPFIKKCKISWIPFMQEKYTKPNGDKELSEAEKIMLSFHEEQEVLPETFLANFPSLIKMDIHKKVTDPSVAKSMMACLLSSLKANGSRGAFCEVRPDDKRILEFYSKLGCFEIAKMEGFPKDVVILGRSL
Method description: OGA biochemical assay (inhibition of FM-GlcNAc hydrolysis, fluorescence)
Condition info: FM-GlcNAc substrate, maximal effect, read-out: Enzymatic Emax (%)

| Compound | Emax [%] |
| --- | --- |
| Cc1cc(CO[C@@H]2CCCN(C(C)c3ccc4sc(C)nc4n3)C2)cc(C)n1 (single isomer, unassigned) [Compound 69] | 96 |
| Cc1cc(C[C@H]2CCCN(C(C)c3ccc4oc(C)nc4n3)C2)cc(OC(F)(F)F)n1 (mixture of isomers) [Compound 25ab] | 101 |
| Cc1cc(C[C@@H]2CCN([C@@H](C)c3cc4nc(C)oc4cc3F)C2)cc(C)n1 (relative stereo) [Compound 33b] | 101 |
| Cc1cc(C2CCCN(C(C)c3ccc4sc(C)nc4n3)C2)c(F)c(C)n1 (single isomer, unassigned) [Compound 77] | 75 |
| Cc1cc(C[C@H]2CCN(C(C)c3ccc4nc(C)sc4c3)C2)cc(C)n1 (stereo partly shown) [Compound 56] | 41 |
| Cc1cc(NCC2CCCN(C(C)c3ccc4sc(C)nc4n3)C2)cc(C)n1 (single isomer, unassigned) [Compound 106] | 99 |
| Cc1cc(C[C@H]2CCCN(Cc3ccc4oc(C)nc4n3)C2)cc(C)n1 [Compound 36] | 101 |
